This collection of values is drawn from patent US4331670A.

Tested on: Pyricularia orzae
test_method_notes: whole plant or invertebrate
Assay type: in vivo, Pyricularia orzae (rice plant, Chukyo Asahi)
assay_setup: in Oryza sativa, 120 h, read-out: Protective value
Provide the recorded pest or weed control at 100 ppm for the entries that follow.
Numbers only, in %.

INSERT INTO results (molecule, value_observed) VALUES
  ('O=[N+]([O-])c1cc(C(F)(F)F)c(Cl)c([N+](=O)[O-])c1Nc1nc(Cl)c(C(F)(F)F)cc1Cl', 95),
  ('CCCCOc1c(C(F)(F)F)cc([N+](=O)[O-])c(Nc2ncc(C(F)(F)F)cc2Cl)c1[N+](=O)[O-]', 95),
  ('O=[N+]([O-])c1cc(C(F)(F)F)c(Cl)c([N+](=O)[O-])c1Nc1ncc(C(F)(F)F)cc1Br', 100),
  ('O=[N+]([O-])c1cc(C(F)(F)F)c(Cl)c([N+](=O)[O-])c1Nc1c(Cl)cncc1Cl', 100);

Give pest or weed control at 100 ppm for each listed item.
1. O=[N+]([O-])c1cc(C(F)(F)F)c(Cl)c([N+](=O)[O-])c1Nc1ncc(C(F)(F)F)cc1Cl
2. Cc1c(Cl)cnc(Nc2c([N+](=O)[O-])cc(C(F)(F)F)cc2[N+](=O)[O-])c1Cl
3. Cc1c(Cl)cnc(Nc2c([N+](=O)[O-])cc(C(F)(F)F)c(Cl)c2[N+](=O)[O-])c1Cl
4. CCc1nc(Nc2c([N+](=O)[O-])cc(C(F)(F)F)c(Cl)c2[N+](=O)[O-])ccc1Br
5. O=[N+]([O-])c1cc(C(F)(F)F)cc([N+](=O)[O-])c1Nc1nc(Cl)c(C(F)(F)F)cc1Cl

[100, 92, 100, 93, 100]

* * *

Tested on: Rhizoctonia solani
test_method_notes: whole plant or invertebrate
Assay type: in vivo, Rhizoctonia solani (rice plant, Chukyo Asahi)
assay_setup: in Oryza sativa, 120 h, read-out: Preventive value
Provide the recorded pest or weed control at 100 ppm for the entries that follow.
Numbers only, in %.

Give pest or weed control at 100 ppm for each listed item.
1. O=[N+]([O-])c1cc(C(F)(F)F)c(Cl)c([N+](=O)[O-])c1Nc1ncc(Cl)cc1Cl
2. COc1c([N+](=O)[O-])cc(C(F)(F)F)c(Nc2ncc(Cl)cc2Cl)c1[N+](=O)[O-]
3. O=[N+]([O-])c1cc([N+](=O)[O-])c(Nc2ncc(Br)cc2Cl)c(C(F)(F)F)c1
4. O=[N+]([O-])c1cc(C(F)(F)F)c(Cl)c([N+](=O)[O-])c1Nc1ncccc1C(F)(F)F

1. 93
2. 100
3. 100
4. 92

Give pest or weed control at 100 ppm for each listed item.
1. O=[N+]([O-])c1cc([N+](=O)[O-])c(Nc2ncc(Cl)cc2Br)c(C(F)(F)F)c1
2. CCCCOc1c(C(F)(F)F)cc([N+](=O)[O-])c(Nc2ncc(C(F)(F)F)cc2Cl)c1[N+](=O)[O-]

[100, 95]

Give pest or weed control at 100 ppm for each listed item.
1. CC(=O)N(c1ncc(C(F)(F)F)cc1Cl)c1c([N+](=O)[O-])cc(C(F)(F)F)c(Cl)c1[N+](=O)[O-]
2. O=[N+]([O-])c1cc([N+](=O)[O-])c(Nc2ncc(Cl)cc2Cl)c(C(F)(F)F)c1
3. O=[N+]([O-])c1cc(C(F)(F)F)cc([N+](=O)[O-])c1Nc1nc(Cl)c(C(F)(F)F)cc1Cl
4. O=[N+]([O-])c1cc(C(F)(F)F)c(Oc2cccc(O)c2)c([N+](=O)[O-])c1Nc1ncc(C(F)(F)F)cc1Cl
5. O=[N+]([O-])c1cc([N+](=O)[O-])c(Nc2ncc(Br)cc2Br)c(C(F)(F)F)c1
6. CSc1c(C(F)(F)F)cc([N+](=O)[O-])c(Nc2ncc(C(F)(F)F)cc2Cl)c1[N+](=O)[O-]

100
100
100
100
100
100

* * *

Provide the recorded pest or weed control at 100 ppm for the entries that follow.
Test system: Rhizoctonia solani
test_method_notes: whole plant or invertebrate
Assay type: in vivo, Rhizoctonia solani (rice plant, Chukyo Asahi)
assay_setup: in Oryza sativa, 120 h, read-out: Preventive value
Give bare numbers, in %.

INSERT INTO assay_data (compound, quantity_unit, value_observed) VALUES
  ('O=[N+]([O-])c1cc([N+](=O)[O-])c(Nc2cc(Cl)cc(Cl)n2)c(C(F)(F)F)c1 [compound 72]', '%', 100);

Give pest or weed control at 100 ppm for each listed item.
1. O=[N+]([O-])c1cc(C(F)(F)F)c(Oc2ccc(O)cc2)c([N+](=O)[O-])c1Nc1ncc(C(F)(F)F)cc1Cl [compound 49]
2. O=[N+]([O-])c1cc(C(F)(F)F)cc([N+](=O)[O-])c1Nc1ncc(Cl)cc1Cl [compound 3]

1: 100; 2: 100

Give pest or weed control at 100 ppm for each listed item.
1. O=[N+]([O-])c1cc(C(F)(F)F)c(Cl)c([N+](=O)[O-])c1Nc1cc(Cl)cc(Cl)n1 [Compound No. 6]
2. O=[N+]([O-])c1cc([N+](=O)[O-])c(Nc2nc(Cl)ccc2C(F)(F)F)c(C(F)(F)F)c1 [compound 76]

100
100

Give pest or weed control at 100 ppm for each listed item.
1. O=[N+]([O-])c1cc([N+](=O)[O-])c(Nc2ncc(C(F)(F)F)cc2Cl)c(C(F)(F)F)c1 [compound 65]
2. CCCOc1c(C(F)(F)F)cc([N+](=O)[O-])c(Nc2ncc(C(F)(F)F)cc2Cl)c1[N+](=O)[O-] [compound 41]
3. O=[N+]([O-])c1cc(C(F)(F)F)c(Cl)c([N+](=O)[O-])c1Nc1ncc(Cl)cc1Br [compound 18]
4. O=[N+]([O-])c1cc(C(F)(F)F)cc([N+](=O)[O-])c1Nc1nc(Cl)c(C(F)(F)F)cc1Br [compound 32]
5. Cc1cc(Cl)cc(Nc2c([N+](=O)[O-])cc([N+](=O)[O-])cc2C(F)(F)F)n1 [compound 73]
6. O=[N+]([O-])c1cc(C(F)(F)F)c(O)c([N+](=O)[O-])c1Nc1ncc(C(F)(F)F)cc1Cl [compound 47]
7. COc1c([N+](=O)[O-])cc(C(F)(F)F)c(Nc2ncc(C(F)(F)F)cc2Cl)c1[N+](=O)[O-] [compound 85]

[100, 95, 100, 100, 87, 95, 100]

* * *

Test system: Pyricularia orzae
test_method_notes: whole plant or invertebrate
Format: in vivo, Pyricularia orzae (rice plant, Chukyo Asahi)
assay_setup: in Oryza sativa, 120 h, read-out: Protective value
property_label: pest or weed control at 100 ppm (%)
Give bare numbers, in %.

Check out these entries, answers already filled in.
INSERT INTO results (compound, quantity_unit, value_observed) VALUES
  ('CC(C)COc1c(C(F)(F)F)cc([N+](=O)[O-])c(Nc2ncc(C(F)(F)F)cc2Cl)c1[N+](=O)[O-] [compound 44]', '%', 95),
  ('O=[N+]([O-])c1cc(C(F)(F)F)c(O)c([N+](=O)[O-])c1Nc1ncc(C(F)(F)F)cc1Cl [compound 47]', '%', 95),
  ('O=[N+]([O-])c1cc(C(F)(F)F)cc([N+](=O)[O-])c1Nc1nc(Cl)c(C(F)(F)F)cc1Br [compound 32]', '%', 100),
  ('O=[N+]([O-])c1cc(C(F)(F)F)cc([N+](=O)[O-])c1Nc1ncc(Cl)cc1Cl [compound 3]', '%', 100),
  ('COc1c(C(F)(F)F)cc([N+](=O)[O-])c(Nc2ncc(C(F)(F)F)cc2Cl)c1[N+](=O)[O-] [compound 39]', '%', 100);

pest or weed control at 100 ppm lookup needed for O=[N+]([O-])c1cc(C(F)(F)F)c(Cl)c([N+](=O)[O-])c1Nc1nc(Cl)c(C(F)(F)F)cc1Br [compound 33] , thanks.
100

* * *

Provide the recorded pest or weed control at 100 ppm for the entries that follow.
Test system: Rhizoctonia solani
test_method_notes: whole plant or invertebrate
Format: in vivo, Rhizoctonia solani (rice plant, Chukyo Asahi)
assay_setup: in Oryza sativa, 120 h, read-out: Preventive value
Numbers only, in %.

Give pest or weed control at 100 ppm for each listed item.
1. O=[N+]([O-])c1cc([N+](=O)[O-])c(Nc2ccc(Br)cn2)c(C(F)(F)F)c1 [compound 54]
2. O=[N+]([O-])c1cc(C(F)(F)F)c(Cl)c([N+](=O)[O-])c1Nc1ccc(C(F)(F)F)cn1 [compound 19]
3. O=[N+]([O-])c1cc(C(F)(F)F)c(Cl)c([N+](=O)[O-])c1Nc1ncc(Cl)cc1C(F)(F)F [compound 29]
4. O=[N+]([O-])c1cc(C(F)(F)F)c(Oc2ccccc2O)c([N+](=O)[O-])c1Nc1ncc(C(F)(F)F)cc1Cl [compound 48]
5. COc1c(C(F)(F)F)cc([N+](=O)[O-])c(Nc2ncc(C(F)(F)F)cc2Cl)c1[N+](=O)[O-] [compound 39]
6. O=[N+]([O-])c1cc([N+](=O)[O-])c(Nc2ncc(C(F)(F)F)cc2Br)c(C(F)(F)F)c1 [compound 80]
7. O=[N+]([O-])c1cc([N+](=O)[O-])c(Nc2ccc(Cl)nc2Cl)c(C(F)(F)F)c1 [compound 75]

1: 90; 2: 100; 3: 100; 4: 100; 5: 100; 6: 100; 7: 100

Give pest or weed control at 100 ppm for each listed item.
1. Cc1nc(Nc2c([N+](=O)[O-])cc(C(F)(F)F)c(Cl)c2[N+](=O)[O-])c(Cl)cc1Cl [compound 8]
2. Cc1nc(Nc2c([N+](=O)[O-])cc([N+](=O)[O-])cc2C(F)(F)F)c(Cl)cc1Cl [compound 68]
3. O=[N+]([O-])c1cc(C(F)(F)F)cc([N+](=O)[O-])c1Nc1ncccc1C(F)(F)F [compound 37]
4. Cc1c(Cl)cnc(Nc2c([N+](=O)[O-])cc([N+](=O)[O-])cc2C(F)(F)F)c1Cl [compound 78]
5. O=[N+]([O-])c1cc([N+](=O)[O-])c(Nc2c(Cl)cncc2Cl)c(C(F)(F)F)c1 [compound 79]

[90, 100, 100, 100, 90]

Give pest or weed control at 100 ppm for each listed item.
1. Cc1cnc(Nc2c([N+](=O)[O-])cc([N+](=O)[O-])cc2C(F)(F)F)c(Br)c1 [compound 64]
2. Cc1cc(Nc2c([N+](=O)[O-])cc([N+](=O)[O-])cc2C(F)(F)F)ncc1Br [compound 87]
3. O=[N+]([O-])c1cc(C(F)(F)F)c(Cl)c([N+](=O)[O-])c1Nc1ccc(Cl)nc1Cl [compound 14]
4. O=[N+]([O-])c1cc(C(F)(F)F)cc([N+](=O)[O-])c1Nc1ncc(C(F)(F)F)cc1Cl [Compound No. 2]

100
100
100
100

pest or weed control at 100 ppm lookup needed for O=[N+]([O-])c1cc(C(F)(F)F)c(Cl)c([N+](=O)[O-])c1Nc1nc(Cl)c(Br)cc1C(F)(F)F [compound 31] , thanks.
90
